Value source: the supplement of paper PMC12494721

- Tested on: Klebsiella aerogenes DSM 30053
- Assay Text: fold change of Cadaverine concentration vs plate DMSO controls (fold change (ratio)); higher = more amine produced, active = hit call of the paper (significant change in both replicates, either direction)
- Experimental Conditions: 20 µM; incubation time: 27 h, anaerobic, 37 °C
Exercise: state measured fold change of Cadaverine concentration for each of the compounds provided.

Compound: Nc1nc(N)nc(N)n1
fold change of Cadaverine concentration: 1.01 (inactive)

I have 2 compounds here; please give me fold change of Cadaverine concentration for each one.
1. C[C@]12C/C(=C/O)C(=O)C[C@@H]1CC[C@@H]1[C@@H]2CC[C@@]2(C)[C@H]1CC[C@]2(C)O
2. CN[C@@H]1[C@@H](O)[C@@H](O[C@@H]2[C@@H](O)[C@H](O[C@H]3O[C@H](CN)CC[C@H]3N)[C@@H](N)C[C@H]2N)OC[C@]1(C)O.CN[C@@H]1[C@@H](O)[C@@H](O[C@@H]2[C@@H](O)[C@H](O[C@H]3O[C@H]([C@@H](C)N)CC[C@H]3N)[C@@H](N)C[C@H]2N)OC[C@]1(C)O.CN[C@@H]1[C@@H](O)[C@@H](O[C@@H]2[C@@H](O)[C@H](O[C@H]3O[C@H]([C@@H](C)NC)CC[C@H]3N)[C@@H](N)C[C@H]2N)OC[C@]1(C)O [Gentamicine sulfate]

### Response
1: 1.01 (inactive); 2: 1.05 (inactive)

I have 2 compounds here; please give me fold change of Cadaverine concentration for each one.
1. Cc1cc(C(C#N)c2ccc(Cl)cc2)c(Cl)cc1NC(=O)c1cc(I)cc(I)c1O (centres undefined) [Closantel]
2. OC(c1ccccc1)(c1ccccc1)C1CCNCC1

### Response
1: 1.05 (inactive); 2: 1 (inactive)

I have 3 compounds here; please give me fold change of Cadaverine concentration for each one.
1. CCCCN(CCCC)N=O
2. O=C(NC(=O)c1c(F)cccc1F)Nc1ccc(OC(F)(F)C(F)OC(F)(F)F)c(Cl)c1 (centres undefined)
3. CCN(C(C)=O)c1cccc(-c2ccnc3c(C#N)cnn23)c1

### Response
1.01 (inactive)
1.01 (inactive)
1.01 (inactive)

====

Exercise: state measured growth for each of the compounds provided.
- Test system: Ruminococcus gnavus DSM 108212
- Assay Text: growth (OD595) fold change vs plate DMSO controls (fold change (ratio)); higher = more growth
- Experimental Conditions: 20 µM; incubation time: 27 h, anaerobic, 37 °C
Structures can show the parent of a compound that is named as a salt.
Give bare numbers.

Below: 2 compounds and their reported growth.
Compound: CN(C)[C@@H]1C(=O)C(C(N)=O)=C(O)[C@@]2(O)C(=O)C3=C(O)c4c(O)cccc4[C@@](C)(O)[C@H]3[C@H](O)[C@@H]12 [Oxytetracycline dihydrate]
Experimental Value: 0.955

Compound: N#Cc1sc2c(=O)c3ccccc3c(=O)c=2sc1C#N
Experimental Value: 1.01

I have 5 compounds here; please give me growth for each one.
1. C=CC[C@]1(O)CC[C@H]2[C@@H]3CCC4=CC(=O)CCC4=C3C=C[C@@]21C [Altrenogest]
2. O=P(Oc1ccccc1)(Oc1ccccc1)Oc1ccccc1 [Triphenyl PO4]
3. Clc1ccc(C(c2ccc(Cl)cc2)C(Cl)(Cl)Cl)cc1
4. C=CCN1CC[C@]23c4c5ccc(O)c4O[C@H]2C(=O)CC[C@@]3(O)[C@H]1C5 [Naloxone hydrochloride]
5. N#Cc1nn(-c2c(Cl)cc(C(F)(F)F)cc2Cl)c(N)c1[S+]([O-])C(F)(F)F (stereo not given) [Fipronil]

### Response
1. 0.827
2. 1.04
3. 1.12
4. 1.24
5. 1.28

I have 3 compounds here; please give me growth for each one.
1. COCc1cnc(C2=NC(C)(C(C)C)C(=O)N2)c(C(=O)O)c1 (stereo not given)
2. O=c1[nH]c2ccccc2n1CCCN1CCC(n2c(=O)[nH]c3cc(Cl)ccc32)CC1 [Domperidone]
3. CCOC(=O)CC(SP(=S)(OC)OC)C(=O)OCC (stereo not given)

### Response
0.967
0.669
0.941
